Data provenance is patent US5849802A.

For each of the compounds below, state its disease control rating, PB.
test system: Botrytis cinerea; experiment: In vivo fungicidal activity: Pepper Botrytis (PB); settings: 200 ppm, sprayed before inoculation; also: ranges in brackets are in %

These recorded examples may help you get a feel for the data.
Entry CC1CCN(C2CCC3(CCC(C(C)(C)C)CC3)C2)CC1 (centres unmarked) [Example 1] ; disease control rating, PB = 8 (96-99)

Entry CC(C)(C)C1CCC2(CCC(NC3CCCCCC3)C2)CC1 (centres unmarked) [Example 11] ; disease control rating, PB = 8 (96-99)

Entry CC1CC(C)CN(C2CCC3(CCC(C(C)(C)C)CC3)C2)C1 (centres unmarked) [Example 5] ; disease control rating, PB = 9 (100)

Entry CC(C)(C)C1CCC2(CCC(NC3CCCC3)C2)CC1 (centres unmarked) [Example 10] ; disease control rating, PB = 6 (75-89)

Further cases:
Entry CC1CCCC(NC2CCC3(CCC(C(C)(C)C)CC3)C2)C1 (centres unmarked) [Example 6] ; disease control rating, PB = 4 (45-59)

---

tested on: Septoria nodorum; experiment: In vivo fungicidal activity: Wheat Septoria nodorum Blotch (WSN); conditions: 200 ppm, sprayed before inoculation
metric-name: disease control rating, WSN

These recorded examples may help you get a feel for the data.
Entry CCCCC(CC)NC1CCC2(CCC(C(C)(C)C)CC2)C1 (stereo not drawn) [Example 2] ; disease control rating, WSN = 0 (0)

Entry CC1CCCC(NC2CCC3(CCC(C(C)(C)C)CC3)C2)C1 (stereo not drawn) [Example 6] ; disease control rating, WSN = 7 (90-95)

Entry CC(C)(C)C1CCC2(CCC(NC3CCCC3)C2)CC1 (stereo not drawn) [Example 10] ; disease control rating, WSN = 7 (90-95)

Batch request: disease control rating, WSN per item, same order as input.
1. CC(C)(C)C1CCC2(CCC(NCc3ccc(Cl)cc3)C2)CC1 (stereo not drawn) [Example 12]
2. CC(C)(C)C1CCC2(CCC(NC3CCCCC3)C2)CC1 (stereo not drawn) [Example 3]
3. CC(C)CNC1CCC2(CCC(C(C)(C)C)CC2)C1 (stereo not drawn) [Example 8]
4. C[C@@H]1CN(C2CCC3(CCC(C(C)(C)C)CC3)C2)C[C@H](C)O1 (stereo partly drawn) [Example 4]
5. CC(C)(C)C1CCC2(CCC(NC3CCCCCC3)C2)CC1 (stereo not drawn) [Example 11]

1. 0 (0)
2. 8 (96-99)
3. 4 (45-59)
4. 7 (90-95)
5. 6 (75-89)

Batch request: disease control rating, WSN per item, same order as input.
1. CN(C1CCCCC1)C1CCC2(CCC(C(C)(C)C)CC2)C1 (stereo not drawn) [Example 9]
2. CC1CCN(C2CCC3(CCC(C(C)(C)C)CC3)C2)CC1 (stereo not drawn) [Example 1]

["6 (75-89)", "7 (90-95)"]

Batch request: disease control rating, WSN per item, same order as input.
1. CC1CC(C)CN(C2CCC3(CCC(C(C)(C)C)CC3)C2)C1 (stereo not drawn) [Example 5]
2. CC1CCC(NC2CCC3(CCC(C(C)(C)C)CC3)C2)CC1 (stereo not drawn) [Example 7]

1: 4 (45-59); 2: 7 (90-95)

---

For each of the molecules below, state its disease control rating, TEB.
test system: Alternaria solani; assay: In vivo fungicidal activity: Tomato Early Blight (TEB); conditions: 200 ppm, sprayed before inoculation; also: ranges in brackets are in %

These recorded examples may help you get a feel for the data.
Entry CN(C1CCCCC1)C1CCC2(CCC(C(C)(C)C)CC2)C1 (stereo not drawn) [Example 9] ; disease control rating, TEB = 0 (0)

Entry CC(C)(C)C1CCC2(CCC(NC3CCCC3)C2)CC1 (stereo not drawn) [Example 10] ; disease control rating, TEB = 2 (15-29)

Entry CC1CCC(NC2CCC3(CCC(C(C)(C)C)CC3)C2)CC1 (stereo not drawn) [Example 7] ; disease control rating, TEB = 4 (45-59)

Batch request: disease control rating, TEB per item, same order as input.
1. CC(C)(C)C1CCC2(CCC(NCc3ccc(Cl)cc3)C2)CC1 (stereo not drawn) [Example 12]
2. CCCCC(CC)NC1CCC2(CCC(C(C)(C)C)CC2)C1 (stereo not drawn) [Example 2]
3. CC1CCN(C2CCC3(CCC(C(C)(C)C)CC3)C2)CC1 (stereo not drawn) [Example 1]
4. CC(C)(C)C1CCC2(CCC(NC3CCCCCC3)C2)CC1 (stereo not drawn) [Example 11]
5. CC(C)CNC1CCC2(CCC(C(C)(C)C)CC2)C1 (stereo not drawn) [Example 8]
6. CC(C)(C)C1CCC2(CCC(NC3CCCCC3)C2)CC1 (stereo not drawn) [Example 3]
7. C[C@@H]1CN(C2CCC3(CCC(C(C)(C)C)CC3)C2)C[C@H](C)O1 (stereo partly drawn) [Example 4]
8. CC1CCCC(NC2CCC3(CCC(C(C)(C)C)CC3)C2)C1 (stereo not drawn) [Example 6]

0 (0)
0 (0)
0 (0)
5 (60-74)
0 (0)
8 (96-99)
0 (0)
7 (90-95)

Entry CC1CC(C)CN(C2CCC3(CCC(C(C)(C)C)CC3)C2)C1 (stereo not drawn) [Example 5] ; disease control rating, TEB = 0 (0)
